molecular target: T1, human GLP-1 receptor (human, UniProt P43220 24-463); assay: SPA competition vs [125I]-GLP-1, hGLP-1R membranes
T1 construct: whole, on cells; also called hGLP-1R; human glucagon-like peptide-1 receptor
For each record, write down the corresponding Ki.
Give bare numbers, in pM.

Example cases with answers are listed next.
binder="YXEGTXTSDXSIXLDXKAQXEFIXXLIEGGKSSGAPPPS (Aib2, αMeF(2F)6, 4Pal10, αMeL13, Orn16, K17(Z1), Aib20, D-Glu24, αMeY25, K31(Z1), C-term NH2; Z1=AEEA-(εK)-(γ-Glu)-CO-(CH2)12-CO2H)" quantity_measured=Ki unit_annotation=pM reading=1380
binder="YXEGTXTSDXSKXLDXKAQXEFIXXLIEGGPSSGAPPPS (Aib2, αMeF(2F)6, 4Pal10, K12(Z1), αMeL13, Orn16, K17(Z1), Aib20, D-Glu24, αMeY25, C-term NH2; Z1=AEEA2-(γ-Glu)-CO-(CH2)12-CO2H)" quantity_measured=Ki unit_annotation=pM reading=3010
binder="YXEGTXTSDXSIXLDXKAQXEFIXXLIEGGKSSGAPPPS (Aib2, αMeF(2F)6, 4Pal10, αMeL13, Orn16, K17(Z1), Aib20, D-Glu24, αMeY25, K31(Z1), C-term NH2; Z1=AEEA2-(εK)-(γ-Glu)-CO-(CH2)12-CO2H)" quantity_measured=Ki unit_annotation=pM reading=2810
binder="YXEGTXTSDXXIXLDXQAQXXFIKXLIKGGPSSGAPPPS (Aib2, αMeF(2F)6, 4Pal10, Aib11, αMeL13, Orn16, Aib20, Orn21, K24(Z1), αMeY25, K28(Z1), C-term NH2; Z1=AEEA3-(γ-Glu)-(10-(4-carboxyphenoxy)decanoyl))" quantity_measured=Ki unit_annotation=pM reading=143
binder="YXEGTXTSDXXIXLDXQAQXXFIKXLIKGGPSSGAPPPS (Aib2, αMeF(2F)6, 4Pal10, Aib11, αMeL13, Orn16, Aib20, Orn21, K24(Z1), αMeY25, K28(Z1), C-term NH2; Z1=AEEA-(γ-Glu)-CO-(CH2)12-CO2H)" quantity_measured=Ki unit_annotation=pM reading=224

Please give the documented Ki of YXEGTXTSDKXIXLDXKAQXXFIXXLIEGGPSSGAPPPS (Aib2, αMeF(2F)6, K10(Z1), Aib11, αMeL13, Orn16, K17(Z1), Aib20, Orn21, D-Glu24, αMeY25, C-term NH2; Z1=AEEA3-(γ-Glu)-CO-(CH2)10-CH3)
134
